Reported log10 koff is given for each of the following binders.
- TARGET: T1, human immunoglobulin E (hIgE) (human, UniProt P01854-1 1-428)
- T1 construct: also called human IgE; Native IgE (Abcam)
- T1 sequence (P01854 whole entry): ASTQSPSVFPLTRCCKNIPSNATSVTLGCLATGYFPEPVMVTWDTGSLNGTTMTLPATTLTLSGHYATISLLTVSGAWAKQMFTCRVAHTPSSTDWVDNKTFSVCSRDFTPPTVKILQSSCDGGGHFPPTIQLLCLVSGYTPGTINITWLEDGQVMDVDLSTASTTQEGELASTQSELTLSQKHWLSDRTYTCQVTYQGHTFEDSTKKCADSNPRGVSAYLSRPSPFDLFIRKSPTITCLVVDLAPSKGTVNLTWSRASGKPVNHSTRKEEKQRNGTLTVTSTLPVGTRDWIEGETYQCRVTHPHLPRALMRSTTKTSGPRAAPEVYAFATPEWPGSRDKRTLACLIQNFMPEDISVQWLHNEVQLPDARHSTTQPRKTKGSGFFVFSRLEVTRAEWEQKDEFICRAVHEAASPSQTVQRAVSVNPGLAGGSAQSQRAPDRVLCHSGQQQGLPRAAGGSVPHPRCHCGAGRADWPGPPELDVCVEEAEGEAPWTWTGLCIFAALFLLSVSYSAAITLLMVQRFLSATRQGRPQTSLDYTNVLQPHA
- ASSAY: SPR (Biacore), pH 6.0
Please interpret these as log10 of koff where koff is in s⁻¹.

[
  {
    "BINDER": "Oma VH15W100b - VL3D28HS31H (antibody, V domains shown) VH: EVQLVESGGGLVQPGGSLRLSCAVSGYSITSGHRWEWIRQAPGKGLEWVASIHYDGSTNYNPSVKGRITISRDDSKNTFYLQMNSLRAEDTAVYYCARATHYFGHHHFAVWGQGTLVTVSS VL: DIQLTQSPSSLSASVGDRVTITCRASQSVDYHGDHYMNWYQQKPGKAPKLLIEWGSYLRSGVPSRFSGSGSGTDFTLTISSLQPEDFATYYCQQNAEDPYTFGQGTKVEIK",
    "log10 koff": -1.05
  }
]

Looking up OmaVH15G55H - VL3 (antibody, V domains shown) VH: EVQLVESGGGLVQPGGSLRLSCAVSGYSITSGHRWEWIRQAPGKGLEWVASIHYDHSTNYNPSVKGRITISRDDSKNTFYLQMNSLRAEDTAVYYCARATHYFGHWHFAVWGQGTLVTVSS VL: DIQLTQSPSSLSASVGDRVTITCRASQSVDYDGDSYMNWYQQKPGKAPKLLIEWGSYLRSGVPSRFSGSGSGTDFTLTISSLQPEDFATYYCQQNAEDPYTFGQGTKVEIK , I see its log10 koff listed as -3.28

Looking up OmaVH15G55HW100b - VL3D28H (antibody, V domains shown, also called OmaVH15G55HW100b VL3D25H) VH: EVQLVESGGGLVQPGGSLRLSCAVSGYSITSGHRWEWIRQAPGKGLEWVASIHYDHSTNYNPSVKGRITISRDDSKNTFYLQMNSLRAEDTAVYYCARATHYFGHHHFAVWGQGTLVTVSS VL: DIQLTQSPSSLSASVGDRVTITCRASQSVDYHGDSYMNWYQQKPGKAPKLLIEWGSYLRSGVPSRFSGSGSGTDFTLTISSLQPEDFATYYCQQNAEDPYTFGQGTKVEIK , I see its log10 koff listed as -1.19

Looking up OMA VH15 - VL3 (antibody, V domains shown) VH: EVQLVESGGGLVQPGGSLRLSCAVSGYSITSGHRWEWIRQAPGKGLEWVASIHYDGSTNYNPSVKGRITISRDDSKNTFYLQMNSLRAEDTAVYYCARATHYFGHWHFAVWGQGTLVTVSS VL: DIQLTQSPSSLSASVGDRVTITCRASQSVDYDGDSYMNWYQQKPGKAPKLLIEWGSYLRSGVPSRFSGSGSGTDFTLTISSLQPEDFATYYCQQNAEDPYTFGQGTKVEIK , I see its log10 koff listed as -3.54

Looking up OmaVH15G55HW100b - VL3 (antibody, V domains shown) VH: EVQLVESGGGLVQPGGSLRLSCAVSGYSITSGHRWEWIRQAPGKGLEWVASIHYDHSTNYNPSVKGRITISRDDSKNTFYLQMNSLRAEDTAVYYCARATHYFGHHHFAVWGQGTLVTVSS VL: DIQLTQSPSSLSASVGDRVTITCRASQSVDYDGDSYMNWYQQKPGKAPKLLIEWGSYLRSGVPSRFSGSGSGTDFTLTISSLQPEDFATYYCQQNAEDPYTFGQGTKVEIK , I see its log10 koff listed as -1.60

Attribution: patent US20220177604A1
